assay.comment: Stability in rat plasma assessed as half life at 5 ug/mL by HPLC
Assay type: ADME, cell-free

# sample.smiles, result.units, half-life at 5 ug/mL
measured = [
    ("Cc1ccc(Nc2c3ccccc3nc3c(C)cccc23)cc1NC(=O)Nc1ccc(N(CCCl)CCCl)cc1", "h", 54.2),
]

====

assay.comment: Chemical stability assessed as half life at 1 mg in DMSO/Tween 80/normal saline solution
Type: physicochemical
# half-life per entry

# sample.smiles, half-life / days
rows = [
    ("Cc1ccc(Nc2c3ccccc3nc3c(C)cccc23)cc1NC(=O)Nc1ccc(N(CCCl)CCCl)cc1", 55),
    ("Cc1cccc2c(Nc3cc(CO)cc(NC(=O)Nc4ccc(N(CCCl)CCCl)cc4)c3)c3ccccc3nc12", 59),
    ("O=C(Nc1ccc(N(CCCl)CCCl)cc1)Nc1cc(CO)cc(Nc2c3ccccc3nc3ccccc23)c1", 55),
]

====

Test system: CCRF-CEM
assay.comment: Selectivity ratio of IC50 for vinblastine-resistant human CCRF-CEM cells to IC50 for human CCRF-CEM cells
Assay type: functional
Ratio IC50 values, listed per item
readout.kind: Ratio IC50

# molecule, endpoint.result
measured = [
    ("Cc1ccc(NC(=O)Nc2ccc(N(CCCl)CCCl)cc2)cc1Nc1c2ccccc2nc2c(C)cccc12", 2.15),
    ("COc1ccc(Nc2c3ccccc3nc3c(C)cccc23)cc1NC(=O)Nc1ccc(N(CCCl)CCCl)cc1", 2.76),
    ("COc1cc(NC(=O)Nc2ccc(N(CCCl)CCCl)cc2)cc(Nc2c3ccccc3nc3ccccc23)c1", 1.46),
    ("COc1ccc(Nc2c3ccccc3nc3ccccc23)cc1NC(=O)Nc1ccc(N(CCCl)CCCl)cc1", 7.13),
    ("COc1ccc(NC(=O)Nc2ccc(N(CCCl)CCCl)cc2)cc1Nc1c2ccccc2nc2ccccc12", 1.24),
    ("OCc1cc(Nc2c3ccccc3nc3ccccc23)cc(OCCN(CCCl)CCCl)c1", 3.84),
    ("Cc1ccc(Nc2c3ccccc3nc3c(C)cccc23)cc1NC(=O)Nc1ccc(N(CCCl)CCCl)cc1", 1.64),
    ("COc1cc(NC(=O)Nc2ccc(N(CCCl)CCCl)cc2)cc(Nc2c3ccccc3nc3c(C)cccc23)c1", 1.46),
    ("Cc1cc(NC(=O)Nc2ccc(N(CCCl)CCCl)cc2)cc(Nc2c3ccccc3nc3ccccc23)c1", 4.2),
    ("O=C(Nc1ccc(N(CCCl)CCCl)cc1)Nc1c2ccccc2nc2ccccc12", 1.65),
    ("COc1cc(NC(=O)Nc2ccc(N(CCCl)CCCl)cc2)cc(Nc2c3ccccc3nc3c(C(=O)NCCN(C)C)cccc23)c1", 72),
    ("Cc1ccc(NC(=O)Nc2ccc(N(CCCl)CCCl)cc2)cc1Nc1c2cccc(C)c2nc2c(C(=O)NCCN(C)C)cccc12", 25.4),
    ("Cc1ccc(Nc2c3ccccc3nc3ccccc23)cc1NC(=O)Nc1ccc(N(CCCl)CCCl)cc1", 2),
    ("COc1ccc(NC(=O)Nc2ccc(N(CCCl)CCCl)cc2)cc1Nc1c2ccccc2nc2c(C)cccc12", 1.3),
    ("CC(=O)O[C@H]1C(=O)[C@@]2(C)[C@H]([C@H](OC(=O)c3ccccc3)[C@]3(O)C[C@H](OC(=O)[C@H](O)[C@@H](NC(=O)c4ccccc4)c4ccccc4)C(C)=C1C3(C)C)[C@]1(OC(C)=O)CO[C@@H]1C[C@@H]2O [PACLITAXEL]", 980),
    ("Cc1cccc2c(Nc3cc(CO)cc(NC(=O)Nc4ccc(N(CCCl)CCCl)cc4)c3)c3ccccc3nc12", 57.5),
]
